Provenance of the data: patent US11440923B2

- SYSTEM UNDER TEST: BCL-XL (Homo sapiens (Human))
- Sequence (Q07817 1-212): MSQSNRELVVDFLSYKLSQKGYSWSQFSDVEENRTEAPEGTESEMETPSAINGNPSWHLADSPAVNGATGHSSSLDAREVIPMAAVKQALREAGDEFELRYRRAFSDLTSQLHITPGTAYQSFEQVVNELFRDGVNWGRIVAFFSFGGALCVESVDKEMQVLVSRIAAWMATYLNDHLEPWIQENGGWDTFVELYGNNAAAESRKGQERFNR
- ASSAY PROTOCOL: Protein-protein interaction assay BCL-XL/Bad BH3 peptide (BCL-XL assay, TR-FRET)
- Format: binding
- PARTICULARS: read-out: BCL-XL Assay IC50 (median)
pIC50: −log10 of the molar value.
OBSERVATION TYPE: pIC50

Observe how each entry below is paired with its result.
Cc1c2c(nn1C)C(CCN1CCOCC1)OCCCCn1c(C(=O)O)c(CCCOc3cccc4cc(F)ccc34)c3ccc(Cl)c-2c31 (racemic) [Example 16] = < 4.70
CCc1c2c(nn1C)C(CCO)OCCCCn1c(C(=O)O)c(CCCOc3cccc4cc(F)ccc34)c3ccc(Cl)c-2c31 (single isomer, unassigned; enantiomer 1) [Example 45] = < 4.70
Cc1c2c(nn1C)C(CCN1CCOCC1)OCCCCn1c(C(=O)O)c(CCCOc3cccc4ccccc34)c3ccc(Cl)c-2c31 (single isomer, unassigned; enantiomer 2) [Example 15] = < 4.70
Cc1c2c(nn1C)C(CCN1CCOCC1)OCCCCn1c(C(=O)O)c(CCCOc3cccc4ccccc34)c3ccc(F)c-2c31 (racemic) [Example 7] = < 4.70
CCc1c2c(nn1C)C(CC(C)(C)O)OCCCCn1c(C(=O)O)c(CCCOc3cccc4cc(F)ccc34)c3ccc(Cl)c-2c31 (single isomer, unassigned; enantiomer 1) [Example 53] = 4.96
CCc1c2c(nn1C)C(CCN1CCC(F)(F)C1)OCCCCn1c(C(=O)O)c(CCCOc3cccc4cc(F)ccc34)c3ccc(Cl)c-2c31 (single isomer, unassigned; enantiomer 2) [Example 57] = < 4.70
Cc1c2c(nn1C)C(CCN1CCOCC1)OCCCCn1c(C(=O)O)c(CCCOc3cccc4cc(F)ccc34)c3ccc(F)c-2c31 (single isomer, unassigned; enantiomer 2) [Example 21] = < 4.70
CCc1c2c(nn1C)C(CCC(C)(C)O)OCCCCn1c(C(=O)O)c(CCCOc3cccc4cc(F)ccc34)c3ccc(Cl)c-2c31 (racemic) = 4.88

Dear colleague, could you send me pIC50 for each of the items below? Thanks.
1. CCc1c2c(nn1C)C(c1ccccc1)OCCCCn1c(C(=O)O)c(CCCOc3cccc4cc(F)ccc34)c3ccc(Cl)c-2c31 (racemic)
2. Cc1c2c(nn1C)C(CCN1CCOCC1)OCCCCn1c(C(=O)O)c(CCCOc3cccc4ccccc34)c3ccc(Cl)c-2c31 (racemic) [Example 13]
3. Cc1c2c(nn1C)C(CCO)OCCCCn1c(C(=O)O)c(CCCOc3cccc4ccccc34)c3ccc(Cl)c-2c31 (single isomer, unassigned; enantiomer 1) [Example 31]

Response:
["< 4.70", "< 4.70", "< 4.70"]

Could you report pIC50 for every entry in the following list?
1. CCc1c2c(nn1C)C(CC(C)(C)O)OCCCCn1c(C(=O)O)c(CCCOc3cccc4cc(F)ccc34)c3ccc(Cl)c-2c31 (racemic) [Example 52]
2. CCc1c2c(nn1C)C(CCN1CCOCC1)OCCCCn1c(C(=O)O)c(CCCOc3cccc4cc(F)ccc34)c3ccc(F)c-2c31 (racemic) [Example 49]

Response:
[4.83, "< 4.70"]

Hi there! I need pIC50 for each item below, if you can.
1. Cc1c2c(nn1C)C(C)OCCCCn1c(C(=O)O)c(CCCOc3cccc4ccccc34)c3cccc-2c31 (single isomer, unassigned; stereoisomer 1) [Example 2]
2. CCc1c2c(nn1C)C(C(F)(F)F)OCCCCn1c(C(=O)O)c(CCCOc3cccc4ccccc34)c3ccc(Cl)c-2c31 (single isomer, unassigned; enantiomer 2) [Example 34]

Response:
< 4.70
< 4.70
